Experiment: Permeability of the compound after 2.5 hrs by PAMPA-BBB assay
property_name: Papp at 2.5 h (×10⁻⁶ cm/s)

[P] CNCCCN1c2ccccc2CCc2ccccc21
[Q] Cn1c(=O)c2c(ncn2C)n(C)c1=O
Kindly identify which of P and Q has the larger recorded Papp at 2.5 h value. Indicate which entry you chose by stating its label.
P
(P: 15.7 ×10⁻⁶ cm/s, Q: 1.7 ×10⁻⁶ cm/s)

[1] S=c1[nH]c2ccccc2c(=S)n1-c1ccccc1
[2] CCn1cc(C(=O)O)c(=O)c2cc(F)c(N3CCNCC3)nc21
[3] CN(C)CCCN1c2ccccc2Sc2ccccc21
Hey, can you sort those compounds up there by Papp at 2.5 h, smallest first? Returns: the labels arranged in the requested order.
2, 3, 1
(2: 1.2 ×10⁻⁶ cm/s, 3: 7.7 ×10⁻⁶ cm/s, 1: 23.8 ×10⁻⁶ cm/s)

====

Molecular target: High affinity 3',5'-cyclic-AMP phosphodiesterase 7A (Homo sapiens, UniProt Q13946)
Sequence (Q13946 whole entry): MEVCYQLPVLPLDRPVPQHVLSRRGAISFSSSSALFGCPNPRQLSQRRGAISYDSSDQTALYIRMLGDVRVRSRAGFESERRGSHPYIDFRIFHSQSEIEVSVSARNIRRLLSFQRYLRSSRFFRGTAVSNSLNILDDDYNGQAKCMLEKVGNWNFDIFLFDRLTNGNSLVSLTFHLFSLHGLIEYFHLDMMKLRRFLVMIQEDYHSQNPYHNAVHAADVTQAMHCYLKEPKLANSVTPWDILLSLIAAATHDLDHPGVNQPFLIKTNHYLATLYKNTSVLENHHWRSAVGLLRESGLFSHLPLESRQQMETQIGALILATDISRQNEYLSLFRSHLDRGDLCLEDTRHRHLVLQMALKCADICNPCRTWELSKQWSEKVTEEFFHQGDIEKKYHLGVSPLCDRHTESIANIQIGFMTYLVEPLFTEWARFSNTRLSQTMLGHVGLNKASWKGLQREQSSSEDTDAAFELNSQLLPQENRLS
Assay: Inhibition of PDE7A assessed as hydrolysis of [3H]cAMP at 10 uM after 20 mins by scintillation proximity assay
property_name: inhibition (%)

Worked examples, 5 compounds total:
COc1ccc(CCn2c(=O)[nH]c3ccc(Br)cc3c2=O)cc1 : -8.3
O=c1c2ccccc2[nH]c(=S)n1-c1cccnc1 : 10
COc1cc2[nH]c(=S)n(-c3cccnc3)c(=O)c2cc1OC : 19
COc1ccc(CCn2c(=O)[nH]c3cnccc3c2=O)cc1 : 22.1
O=c1c2cccnc2[nH]c(=S)n1-c1cccc(Br)c1 : 12.8

[I] COc1cc2[nH]c(=S)n(CCN3CCOCC3)c(=O)c2cc1OC
[II] COc1ccc(CCn2c(=O)[nH]c3ccccc3c2=O)cc1
# returns the entry with the larger inhibition; inputs I and II Mark your selection by writing its label.
I
(I: 17.9%, II: -7.2%)

====

Observed IC50 values for High affinity 3',5'-cyclic-AMP phosphodiesterase 7A (Homo sapiens, UniProt Q13946) are listed in what follows.
Dear colleague, please return just the value in µM, with no unit written.

O=c1c2cccc(Cl)c2[nH]c(=S)n1-c1ccccc1Br : 1.8

With those in mind, consider the next compound.
# get_value(readout= IC50, system= High affinity 3',5'-cyclic-AMP phosphodiesterase 7A (Homo sapiens, UniProt Q13946)) for `O=c1c2cccc(Cl)c2[nH]c(=S)n1-c1c(F)cccc1F`
6.1

====

Molecular target: High affinity 3',5'-cyclic-AMP phosphodiesterase 7A (Homo sapiens, UniProt Q13946)
Experiment: Inhibition of PDE7A assessed as hydrolysis of [3H]cAMP at 10 uM after 20 mins by scintillation proximity assay
property_name: inhibition (%)

[A] O=c1c2cccnc2[nH]c(=S)n1-c1ccccc1
[B] COc1ccc(Cn2c(=O)[nH]c3ncccc3c2=O)cc1
[C] O=c1c2ccccc2[nH]c(=S)n1CCN1CCOCC1
[D] O=c1c2ccncc2[nH]c(=S)n1-c1cccnc1
Arrange the 4 entries by inhibition so the values rise. Would you mind listing the labels in the order asked for?
A, D, B, C
